Measured IC50, listed per entry.
Target: AC1/CaM PPI (Homo sapiens)
Construct: human AC1 (hAC1) residues 1–1,118 were cloned; The hCaM residues 1–149, residues 1–1,248 of rat AC8 (rAC8); expressed in transfected cells; host or cells: HEK293T, transient transfection
Experiment: AC1/CaM NanoBiT assay in HEK293T cells
Type: cell-based
Details: HEK293T, thapsigargin-stimulated, AUC; read-out: Nanobit: AC1-CaM IC50 (μM ± SEM)
Value expressed in µM; do not type the unit.

Use these answered entries as a reference point.
[[record]]
compound = "CCCCCCCCCCCCCCCC[N+](C)(C)CCN(Cc1ccc(OC)cc1)c1ncccn1"
tgt = "AC1/CaM PPI (Homo sapiens)"
quantity_unit = "µM"
observed_result = 29.1

[[record]]
compound = "CCCCCCCCOc1ccccc1C(=O)Nc1ccc(C(=O)OCC[N+](C)(CC)CC)cc1"
tgt = "AC1/CaM PPI (Homo sapiens)"
quantity_unit = "µM"
observed_result = 18.8

[[record]]
compound = "Cn1cc(C(=O)Nc2ccc(Cl)cc2Cl)c2[nH]c(=O)n(-c3ccc(Cl)cc3)c(=O)c21"
tgt = "AC1/CaM PPI (Homo sapiens)"
quantity_unit = "µM"
observed_result = 25.6

[[record]]
compound = "CCc1oc2ccccc2c1C(=O)c1cc(Br)c(O)c(Br)c1"
tgt = "AC1/CaM PPI (Homo sapiens)"
quantity_unit = "µM"
observed_result = 1.7

[[record]]
compound = "CCCCC(CC)CNC(=N)NC(=N)NCCCCCCNC(=N)NC(=N)NCC(CC)CCCC (centres unmarked)"
tgt = "AC1/CaM PPI (Homo sapiens)"
quantity_unit = "µM"
observed_result = 17.9

[[record]]
compound = "CC(=O)Oc1c(Sc2ccc(Cl)cc2)c(C)nn1C(C)(C)C"
tgt = "AC1/CaM PPI (Homo sapiens)"
quantity_unit = "µM"
observed_result = 16.1

[[record]]
compound = "CCC12CN3CC(CC)(CN(C1)C31C(=O)N(C)c3ccc(Br)cc31)C2=O (centres unmarked)"
tgt = "AC1/CaM PPI (Homo sapiens)"
quantity_unit = "µM"
observed_result = 84


Documented IC50 of CN(C)c1ccc2nc3ccc(=[N+](C)C)cc-3sc2c1 : 98

---

Measured Ki, listed per entry.
Biological target: AC8-C2b/CaM (Homo sapiens, UniProt P0DP23)
Construct: made in house; host or cells: E. coli BL21-CodonPlus (DE3)-RIPL
Experiment: AC8-C2b/CaM FP counterscreen assay;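 note: fluorescence polarization of AC peptide binding to GST-CaM in HEPES buffer with KCl and 50 µM CaCl2, compound preincubated 30 min with GST-CaM, DMSO and calmidazolium as controls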
Format: binding
Settings: Cheng-Prusoff from FP IC50 and Kd; n/i given where none
Where a name gives a salt, the structure may show the parent alone.
Value expressed in µM; do not type the unit.

[[record]]
molecule = "CN(C(=O)CN(CCO)CC(=O)N(C)C(C)(C)Cc1ccccc1)C(C)(C)Cc1ccccc1 [Compound 8, Oxetacaine]"
observed_result = 33.5

[[record]]
molecule = "O=C1c2c(O)ccc(O)c2C(=O)c2c(NCCNCCO)ccc(NCCNCCO)c21 [Compound 11, Mitoxantrone HCl]"
observed_result = 8.2


// molecule CCC(C)CC(C)CCCCCCCCC(=O)NC1CC(O)C(NCCN)NC(=O)C2C(O)CCN2C(=O)C(C(O)CCN)NC(=O)C(C(O)C(O)c2ccc(O)cc2)NC(=O)C2CC(O)CN2C(=O)C(C(C)O)NC1=O (stereo not drawn) [Compound 5, Caspofungin Acetate] , assay AC8-C2b/CaM (Homo sapiens, UniProt P0DP23), Ki value: 6.2

// molecule CNC(=O)C1=C(Nc2ccc(N(C)C)cc2)c2ccccc2S1(=O)=O [Compound 20] , assay AC8-C2b/CaM (Homo sapiens, UniProt P0DP23), Ki value: 4.5

// molecule Cc1cc2nc3ccc(N(C)C)cc3[s+]c2cc1N [Compound 1, Tolonium Chloride] , assay AC8-C2b/CaM (Homo sapiens, UniProt P0DP23), Ki value: 0.44

// molecule [H]/N=C(\N/C(=N/[H])NCCCCCCNC(=N)NC(=N)Nc1ccc(Cl)cc1)Nc1ccc(Cl)cc1 [Compound 9, Chlorhexidine HCl] , assay AC8-C2b/CaM (Homo sapiens, UniProt P0DP23), Ki value: 20.8

// molecule CC1=C(CCC(=O)O)c2cc3[nH]c(cc4nc(cc5[nH]c(cc1n2)c(C)c5C(C)O)C(C)=C4C(C)O)c(C)c3CCC(=O)O (stereo not drawn) [Compound 6, Hematoporphyrin] , assay AC8-C2b/CaM (Homo sapiens, UniProt P0DP23), Ki value: 10.1

// molecule CCCCCCCCCCCCCCCC[N+](C)(C)CCN(Cc1ccc(OC)cc1)c1ncccn1 [Compound 4, Thonzonium] , assay AC8-C2b/CaM (Homo sapiens, UniProt P0DP23), Ki value: 3.6

// molecule CCCCC(CC)CNC(=N)NC(=N)NCCCCCCNC(=N)NC(=N)NCC(CC)CCCC (stereo not drawn) [Compound 3, Alexidine] , assay AC8-C2b/CaM (Homo sapiens, UniProt P0DP23), Ki value: 2.6

// molecule CN(C)c1ccc2nc3ccc(=[N+](C)C)cc-3sc2c1 [Compound 2, Methylene Blue] , assay AC8-C2b/CaM (Homo sapiens, UniProt P0DP23), Ki value: 0.82

// molecule CCc1oc2ccccc2c1C(=O)c1cc(Br)c(O)c(Br)c1 [Compound 12, Benzbromarone] , assay AC8-C2b/CaM (Homo sapiens, UniProt P0DP23), Ki value: 23.8

// molecule CCCCCCCCOc1ccccc1C(=O)Nc1ccc(C(=O)OCC[N+](C)(CC)CC)cc1 [Compound 7, Otilonium] , assay AC8-C2b/CaM (Homo sapiens, UniProt P0DP23), Ki value: 10.3

---

Assay: Cytotoxicity assay (CellTiter-Glo 2.0) in AC1-HEK Δ3/6 KO cells
Format: cell-based
Conditions: human, percent of vehicle, read-out: % Viable Cells at AC1 30 μM
Test readout: viability at 30 min, 30 μM (%)
Value expressed in %; do not type the unit.

Use these answered entries as a reference point.
[[record]]
molecule = "O=C(Nc1sc2c(c1C(c1cccs1)N1CCOCC1)CCCC2)c1ccco1 (stereo not shown) [Compound 32]"
observed_result = 100

[[record]]
molecule = "CCc1cc(C(c2cccs2)N2CCN(CC)CC2)c(NC(=O)c2ccco2)s1 (stereo not shown) [Compound 26]"
observed_result = 61

[[record]]
molecule = "Cc1cc(C(c2cccs2)N2CCN(C)CC2)c(NC(=O)c2ccco2)s1 (stereo not shown) [Compound 25]"
observed_result = 94


Now for the molecule whose viability at 30 min, 30 μM we want.
Documented viability at 30 min, 30 μM of Cc1cc(C(c2cccs2)N2CCC(C)CC2)c(NC(=O)c2ccco2)s1 (stereo not shown) [Compound 23] : 100

---

Target: AC8-Nt/CaM (Homo sapiens)
Construct: made in house; host or cells: E. coli BL21-CodonPlus (DE3)-RIPL
Experiment: AC8-Nt/CaM FP counterscreen assay;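 note: fluorescence polarization of AC peptide binding GST-CaM in HEPES buffer with CaCl2, compound preincubated with CaM 30 min, peptide read after 2 h at room temperature in dark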
Format: binding
Conditions: Cheng-Prusoff from FP IC50 and Kd; n/i given where none
Test readout: Ki (µM)
Value expressed in µM; do not type the unit.

Use these answered entries as a reference point.
[[record]]
compound = "CN(C(=O)CN(CCO)CC(=O)N(C)C(C)(C)Cc1ccccc1)C(C)(C)Cc1ccccc1"
observed_result = 38

[[record]]
compound = "CN(C)c1ccc2nc3ccc(=[N+](C)C)cc-3sc2c1"
observed_result = 3.2

[[record]]
compound = "CCc1oc2ccccc2c1C(=O)c1cc(Br)c(O)c(Br)c1"
observed_result = 52.1


Documented Ki of CC1=C(CCC(=O)O)c2cc3[nH]c(cc4nc(cc5[nH]c(cc1n2)c(C)c5C(C)O)C(C)=C4C(C)O)c(C)c3CCC(=O)O (stereo not drawn) : 61.7

Documented Ki of CNC(=O)C1=C(Nc2ccc(N(C)C)cc2)c2ccccc2S1(=O)=O : 5.9

---

Target: AC8/CaM PPI (Homo sapiens, UniProt P0DP23)
Construct: confirmed as an AC1/AC8 non-selective hit against full-length AC1- and AC8-CaM in the NanoBiT assay; The hCaM residues 1–149, residues 1–1,248 of rat AC8 (rAC8); expressed in transfected cells; host or cells: HEK293T, transient transfection
Assay: AC8/CaM NanoBiT assay in HEK293T cells
Type: cell-based, rat
Conditions: HEK293T, thapsigargin-stimulated, AUC; read-out: Nanobit: AC8-CaM IC50 (μM ± SEM)
Where a name gives a salt, the structure may show the parent alone.
Measured log10(IC50), listed per entry.
Kindly note that the scale is log10 and the underlying IC50 is in µM.

Use these answered entries as a reference point.
[[record]]
compound = "CCc1cc(C(c2cccs2)N2CCN(C)CC2)c(NC(=O)c2ccco2)s1 (stereo not shown)"
test_readout = "log10(IC50)"
observed_result = 1.52

[[record]]
compound = "CN(C)c1ccc2nc3ccc(=[N+](C)C)cc-3sc2c1"
test_readout = "log10(IC50)"
observed_result = 1.90

[[record]]
compound = "CCCCCCCCOc1ccccc1C(=O)Nc1ccc(C(=O)OCC[N+](C)(CC)CC)cc1"
test_readout = "log10(IC50)"
observed_result = 1.11

[[record]]
compound = "[H]/N=C(\\N/C(=N/[H])NCCCCCCNC(=N)NC(=N)Nc1ccc(Cl)cc1)Nc1ccc(Cl)cc1 [Compound 9, Chlorhexidine HCl]"
test_readout = "log10(IC50)"
observed_result = 1.67

[[record]]
compound = "CN(C(=O)CN(CCO)CC(=O)N(C)C(C)(C)Cc1ccccc1)C(C)(C)Cc1ccccc1"
test_readout = "log10(IC50)"
observed_result = 1.54


Documented log10(IC50) of O=S(=O)(Nc1ccc2c(c1)N(S(=O)(=O)c1ccc(F)cc1)CCC2)c1cccc(F)c1 : 0.76

Documented log10(IC50) of O=C1c2c(O)ccc(O)c2C(=O)c2c(NCCNCCO)ccc(NCCNCCO)c21 [Compound 11, Mitoxantrone HCl] : 1.47
